Biological target: human OX2R (Homo sapiens)
Construct: expressed in transfected cells; host or cells: CHO (Chinese hamster ovary) cells grown under G418 selection
Sequence (O43614 1-444): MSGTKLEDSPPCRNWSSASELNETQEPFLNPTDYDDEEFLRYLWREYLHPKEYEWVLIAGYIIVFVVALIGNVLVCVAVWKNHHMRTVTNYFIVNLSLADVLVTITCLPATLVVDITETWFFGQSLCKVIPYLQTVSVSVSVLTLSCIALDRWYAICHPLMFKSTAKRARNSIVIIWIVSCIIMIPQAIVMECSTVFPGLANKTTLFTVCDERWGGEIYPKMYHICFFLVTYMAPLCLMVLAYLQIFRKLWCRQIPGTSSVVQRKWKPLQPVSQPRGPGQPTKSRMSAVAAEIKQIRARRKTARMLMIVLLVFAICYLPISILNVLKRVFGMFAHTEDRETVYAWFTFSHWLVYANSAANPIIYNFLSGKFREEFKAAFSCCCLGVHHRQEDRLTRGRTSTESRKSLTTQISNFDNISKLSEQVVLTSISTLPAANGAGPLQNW
Test: IPOne (IP-1 accumulation) assay in CHO cells expressing human OX2R
Format: cell-based
Details: percent effect vs mean max effect of a reference compound at 1 uM (100% activity vs Orexin A), human OX2R
Quantity measured: % of maximum agonist effect (relative to Orexin A) (%)

CCN(C(=O)N[C@@H](CCC(F)(F)F)C1CC1)[C@H](C)c1cnc(OC)c(-c2cn3ccnc3c(OC)n2)c1 :: 100.6
CCN(C(=O)N[C@@H](CCC(F)(F)F)C(F)(F)F)[C@H](C)c1cccc(-c2cc(OC)c3ncnn3c2)c1 :: 95.4
CCN(C(=O)NC[C@H]1COCC(=O)N1)[C@H](C)c1cccc(-c2cn3ccnc3c(OC)n2)c1 :: 99.0
CCN(C(=O)NC(C)(C)C#N)[C@H](C)c1cccc(-c2cn3ccnc3c(OC)n2)c1 :: 98.0
CC[C@H](CCC(F)(F)F)NC(=O)N(CC)[C@H](C)c1cccc(-c2cc(OC(F)F)c3nccn3c2)c1 :: 96.8
CCC(CCC(F)(F)F)NC(=O)N(CC)[C@H](C)c1cccc(-c2cn3ccnc3cc2COC)c1 (stereo partly shown) :: 100.8
CCN(C(=O)N[C@@H](CCC(F)(F)F)C(F)(F)F)[C@@H](c1cc(-c2nc(OC)c3nccn3n2)c(OC)cn1)C(F)(F)F :: 99.5

###

Molecular target: UniProt:O43614
Test: IPOne (IP-1 accumulation) assay in CHO cells expressing human OX2R
Conditions: CHO cells expressing human OX2R; IP-One assay, 2 h incubation; four parameter logistic fit; read-out: OX2R Potency, EC50
pEC50: −log10 of the molar value.
Quantity measured: pEC50

CCN(C(=O)N[C@@H](C)C(F)(F)F)[C@@H](c1cc(-c2cn3ccnc3c(OC)n2)c(OC)cn1)C(F)(F)F :: 8.17
CCN(C(=O)NC(C1CCC1)C(F)(F)F)[C@@H](c1cc(-c2cn3ccnc3c(OC)n2)c(OC)cn1)C(F)(F)F (stereo partly shown) :: 7.97

P = CCCN(C(=O)N[C@H](CC)CCC(F)(F)F)[C@H](C)c1cccc(-c2cn3ccnc3c(OC)n2)c1
Q = CC[C@H](CCC(F)(F)F)NC(=O)N(CC)[C@H](C)c1cc2c(c(-c3ccc4nccn4c3)c1)OCC2
R = CCN(C(=O)N[C@@H](CCC#N)C(F)(F)F)[C@@H](c1cc(-c2cn3ccnc3c(OC)n2)c(OC)cn1)C(F)(F)F
S = CCN(C(=O)N[C@@H](CCC(F)(F)F)C(F)(F)F)[C@@H](c1ccc(OC)c(-c2ccc3nccn3c2)c1)C(F)(F)F
T = CCN(C(=O)NC(Cn1ccnn1)C(F)(F)F)[C@H](C)c1cccc(-c2cn3ccnc3c(OC)n2)c1 (stereo partly shown)
[Q] Kindly order the items shown according to pEC50, from the highest value down. List labels; respect the requested ordering.
[A] R, S, Q, T, P

###

Molecular target: human OX2R (Homo sapiens, UniProt O43614)
Construct: expressed in transfected cells; host or cells: CHO (Chinese hamster ovary) cells grown under G418 selection
Sequence (O43614 1-444): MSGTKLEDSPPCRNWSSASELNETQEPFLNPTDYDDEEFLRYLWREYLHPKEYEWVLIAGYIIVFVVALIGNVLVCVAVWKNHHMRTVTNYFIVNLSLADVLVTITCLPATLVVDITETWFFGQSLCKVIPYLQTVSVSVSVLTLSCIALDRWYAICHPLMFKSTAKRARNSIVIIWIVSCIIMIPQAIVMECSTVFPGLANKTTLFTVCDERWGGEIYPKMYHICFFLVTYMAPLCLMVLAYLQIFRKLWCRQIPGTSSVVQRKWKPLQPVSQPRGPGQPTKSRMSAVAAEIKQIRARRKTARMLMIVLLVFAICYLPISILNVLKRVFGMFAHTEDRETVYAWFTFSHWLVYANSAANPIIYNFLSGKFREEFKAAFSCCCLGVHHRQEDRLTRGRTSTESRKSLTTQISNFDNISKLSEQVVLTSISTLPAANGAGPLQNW
Experiment: IPOne (IP-1 accumulation) assay in CHO cells expressing human OX2R
Assay type: cell-based
Details: percent effect vs mean max effect of a reference compound at 1 uM (100% activity vs Orexin A), human OX2R
Quantity measured: % of maximum agonist effect (relative to Orexin A) (%)

CCN(C(=O)N[C@@H](CCC(F)F)C(F)(F)F)[C@@H](c1cc(-c2cn3cc(C)nc3c(OC)n2)c(OC)cn1)C(F)(F)F :: 101.6
COc1nc(-c2cccc(C(C)N(CC(F)F)C(=O)N[C@@H](CCC(F)(F)F)C(F)(F)F)c2)cn2ccnc12 (stereo partly drawn) :: 99.5
CCN(C(=O)N[C@@H](CCC(F)(F)F)C(F)(F)F)[C@@H](c1cc(-c2cc(F)c3ncnn3c2)c(OC)cn1)C(F)(F)F :: 97.1

###

Target: human OX2R (Homo sapiens)
Sequence (O43614 1-444): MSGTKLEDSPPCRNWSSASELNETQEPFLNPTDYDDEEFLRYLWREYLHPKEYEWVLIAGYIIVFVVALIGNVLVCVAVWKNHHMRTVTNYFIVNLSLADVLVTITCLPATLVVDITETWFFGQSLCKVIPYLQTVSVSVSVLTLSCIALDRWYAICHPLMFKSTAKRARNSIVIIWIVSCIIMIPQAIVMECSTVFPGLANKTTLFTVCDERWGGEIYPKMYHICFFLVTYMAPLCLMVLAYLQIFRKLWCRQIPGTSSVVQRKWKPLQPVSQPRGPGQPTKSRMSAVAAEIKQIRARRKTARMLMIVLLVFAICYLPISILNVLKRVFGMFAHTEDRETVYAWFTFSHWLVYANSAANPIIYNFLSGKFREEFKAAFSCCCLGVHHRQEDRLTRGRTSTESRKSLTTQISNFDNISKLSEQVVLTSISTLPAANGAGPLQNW
Test: IPOne (IP-1 accumulation) assay in CHO cells expressing human OX2R
Conditions: CHO cells expressing human OX2R; IP-One assay, 2 h incubation; four parameter logistic fit; read-out: OX2R Potency, EC50
Quantity measured: EC50 (nM)

# example entries with known answers
CCN(C(=O)N[C@@H](CCC(F)(F)F)C(F)(F)F)[C@@H](c1cc(-c2nc(OC)c3nccn3c2C)c(OC)cn1)C(F)(F)F [Example 9-3] :: 6.2
CCN(C(=O)N[C@@H](CCC(F)=C(F)F)C(F)(F)F)[C@@H](c1cc(-c2cn3cc(C)nc3c(OC)n2)c(OC)cn1)C(F)(F)F [Example 3-4] :: 27.8
CC[C@H](CCC(F)F)NC(=O)N(CC)[C@@H](c1cc(-c2cn3cc(C)nc3c(OC)n2)c(OC)cn1)C(F)(F)F [Example 6-1] :: 22.6
CCN(C(=O)NCC(N(C)C)C(F)(F)F)[C@H](C)c1cccc(-c2cc(OC)c3nccn3c2)c1 (stereo partly drawn) [Example 1-7] :: 17.5

I = CCN(C(=O)N[C@@H](C(C)(C)C)C(F)(F)F)[C@@H](c1cc(-c2cn3ccnc3c(OC)n2)c(OC)cn1)C(F)(F)F [Example 2-28]
II = CCN(C(=O)NC(COC(=O)N(C)C)C(F)(F)F)[C@H](C)c1cccc(-c2cn3ccnc3c(OC)n2)c1 (single isomer, unassigned) [Example 23]
[Q] Hi, I'm comparing I with II and wondering which one has the bigger number for EC50. Any idea? Pick one; state its label.
[A] II

###

Biological target: human OX2R (Homo sapiens, UniProt O43614)
Construct: expressed in transfected cells; host or cells: CHO (Chinese hamster ovary) cells grown under G418 selection
Test: IPOne (IP-1 accumulation) assay in CHO cells expressing human OX2R
Type: cell-based
Conditions: percent effect vs mean max effect of a reference compound at 1 uM (100% activity vs Orexin A), human OX2R
Quantity measured: % of maximum agonist effect (relative to Orexin A) (%)

CCN(C(=O)NC(C1CN(C)C1)C(F)(F)F)[C@H](C)c1cccc(-c2cn3ccnc3c(OC)n2)c1 (stereo partly drawn) [Example 1-15] :: 99.7
CC[C@H](CCC(F)(F)F)NC(=O)N(CC)[C@H](C)c1cc(-c2ccc3nccn3c2)c(OC)cc1F [Example 11-2] :: 98.5
CCN(C(=O)N[C@@H](CCC(F)(F)F)C(F)(F)F)C(c1cc(-c2cn3cc(C)nc3c(OC)n2)c(OC)cn1)C1CC1 (stereo partly drawn) [Example 2-16] :: 101.1
CCN(C(=O)N[C@@H](CCC(F)(F)F)C(F)(F)F)[C@H](C)c1cccc(-c2cc(OC)c3ncc(Cl)n3c2Cl)c1 [Example 8-14] :: 100.1
CCN(C(=O)NC(C)C)[C@@H](c1cc(-c2cn3ccnc3c(OC)n2)c(OC)cn1)C(F)(F)F [Example 2-29] :: 96.0
CCN(C(=O)NC(COC(C)=O)C(F)(F)F)[C@H](C)c1cccc(-c2cn3ccnc3c(OC)n2)c1 (stereo partly drawn) [Example 22] :: 97.0
CCN(C(=O)NC(CCCF)C1CC1)[C@@H](c1cc(-c2cn3cc(C)nc3c(OC)n2)c(OC)cn1)C(F)(F)F (stereo partly drawn) [Example 6-4] :: 100.3
CCCN(C(=O)N[C@H](CC)CCC(F)(F)F)[C@H](C)c1cccc(-c2cn3ccnc3c(OC)n2)c1 [Example 2-59] :: 100.2
CCCC(C#N)NC(=O)N(CC)[C@H](C)c1cccc(-c2cn3ccnc3c(OC)n2)c1 (stereo partly drawn) [Example 2-37] :: 100.8
CC[C@H](NC(=O)N(CC)C(c1cc(-c2cn3ccnc3c(OC)n2)c(OC)cn1)C(F)(F)F)C(F)(F)F (stereo partly drawn) [Example 2-8] :: 100.0
CCOc1cc(-c2cccc([C@@H](C)N(CC)C(=O)N[C@H](CC)CCC(F)(F)F)c2)cn2ccnc12 [Example 8-2] :: 97.7
CCN(C(=O)N[C@@H](CCC(F)(F)F)C(F)(F)F)[C@H](C)c1cccc(-c2ccc3nccn3c2)c1 [Example 1-1] :: 98.4
CCN(C(=O)N[C@@H](CCC(F)=C(F)F)C(F)(F)F)[C@@H](c1cc(-c2cn3cc(C)nc3c(OC)n2)c(OC)cn1)C(F)(F)F [Example 3-4] :: 100.5
CCN(C(=O)NC(CCC(F)(F)F)C(C)(F)F)[C@H](C)c1cccc(-c2cn3ccnc3c(OC)n2)c1 (stereo partly drawn) [Example 2-55] :: 99.4
CCOC1(CC(NC(=O)N(CC)[C@H](C)c2cccc(-c3cn4ccnc4c(OC)n3)c2)C(F)(F)F)CC1 (stereo partly drawn) [Example 2-57] :: 96.2
CCN(C(=O)NC(CC(F)(F)F)C1CC1)C(c1cc(-c2cn3ccnc3c(OC)n2)c(OC)cn1)C(F)(F)F (stereo not drawn) [Example 6-3] :: 100.2
CCN(C(=O)NC(C)C(F)F)[C@@H](c1cc(-c2cn3ccnc3c(OC)n2)c(OC)cn1)C(F)(F)F (stereo partly drawn) [Example 2-41] :: 101.2
CCN(C(=O)NC(C1CC(F)(F)CCN1C)C(F)(F)F)[C@H](C)c1cccc(-c2cc(OC)n3nccc3c2)c1 (stereo partly drawn) [Example 2-53] :: 101.6
CCN(C(=O)NC(CNS(=O)(=O)N(C)C)C(F)(F)F)[C@H](C)c1cccc(-c2cn3ccnc3c(OC)n2)c1 (stereo partly drawn) [Example 17] :: 101.8
CCN(C(=O)N[C@@H](CCC(F)(F)F)C(F)(F)F)[C@H](C)c1cccc(-c2cc(OC)c3nc(C(F)(F)F)cn3c2)c1 [Example 27] :: 98.5
CCN(C(=O)N[C@@H](CCC(F)(F)F)C(F)(F)F)C(C)c1cc(-c2cc(F)c3nccn3c2)c(OC)cn1 (stereo partly drawn) [Example 15-2] :: 99.1
CCN(C(=O)N[C@@H](CCC(F)(F)F)C(F)(F)F)[C@H](C)c1cc(-c2cc(OC)n3nccc3c2)c(OC)cn1 [Example 11-5] :: 100.1
CCN(C(=O)N[C@@H](CCC(F)(F)F)C(F)(F)F)[C@H](C)c1cnc(C)c(-c2cn3ccnc3c(OC)n2)c1 [Example 10-18] :: 99.8
CCN(C(=O)N[C@@H](CC(OC)C(F)(F)F)C(F)(F)F)[C@@H](c1cc(-c2cn3cc(C)nc3c(OC)n2)c(OC)cn1)C(F)(F)F (stereo partly drawn) [Example 2-44] :: 100.6
CC[C@H](CCC(F)(F)F)NC(=O)N(C)[C@H](C)c1cccc(-c2cn3ccnc3c(OC)n2)c1 [Example 2-58] :: 100.0
CCN(C(=O)N[C@@H](CCC(F)(F)F)C(F)(F)F)[C@@H](c1cc(-c2nc(OC)c3nccn3c2C)c(OC)cn1)C(F)(F)F [Example 9-3] :: 100.7
CCN(C(=O)N[C@@H](CCC(F)(F)F)C(F)(F)F)[C@H](C)c1cc(-c2cc3ccnn3c(OC)n2)c(OC)cn1 [Example 2-51] :: 98.7
